compounds and their reported growth
tested on: 786-0 renal; assay: NCI-60 one-dose screen, 48 h (100 = growth as untreated, 0 = no growth, -100 = all killed); conditions: 10 µM unless noted
The panel holds about 83,000 compounds, 20% with a hit somewhere; the sample as a whole holds those more often.
Respond numerically; units are % and should not be typed.

O=C(NNc1cnccn1)c1nc2cc(F)ccc2n2cccc12; 28.6
CCN1CCN(C(=O)[C@]23CC[C@@H](C)[C@H](C)[C@@H]2C2=CC[C@@H]4[C@@]5(C)C/C(=C/c6cccnc6)C(=O)C(C)(C)[C@@H]5CC[C@@]4(C)[C@]2(C)CC3)CC1; 42.4
COc1ccc(/C=C2\COc3ccc(O)cc3C2=O)cc1; 92.2
CC/C=C\C[C@H](O)C/C=C1/C(=O)C=C[C@@H]1C/C=C\CCCC(=O)O; 68.5
CCN1C(=O)N(CC)C2C1N=C(SCc1ccc(Cl)cc1)N2/N=C/C=C/c1ccccc1OC (centres undefined); 86.2
CCN(CC)CCCOc1ccc2ncnc(Nc3ccc(Oc4cccc(C(F)(F)F)c4)c(Cl)c3)c2c1; -83.9
NC1=Nc2cc(OCCCCN3Cc4ccccc4C3)c(OCC3CC3)cc2C12CCCC2; 56.2
CCOC(=O)c1c(C)nc2ccccc2c1/C=C/c1ccccc1; 88.6

Now, please, on to the next compound.
Q. // growth lookup, key: `Oc1ccc(/C=C/c2ccc(O)cc2)cc1`
A. 24.3

----------
Quick reference: growth of the listed items.
system: A549/ATCC NSCLC; experiment: NCI-60 one-dose screen, 48 h (100 = growth as untreated, 0 = no growth, -100 = all killed); settings: 10 µM unless noted
This is part of a sample that, as a whole, favours compounds with a hit. Of some 83,000 tested, about 20% had one in any assay.
Express the result in % but write the number alone.

Previously resolved entries follow.
COc1cc(OC)c(/C=C/C(=O)c2c(O)cc(OC)c(C3CCN(C)CC3)c2OC)c(OC)c1; -60.7
CCN1CCN(CCNc2nccc(-c3c(-c4ccc(F)c(OC)c4)nc4sccn34)n2)S1(=O)=O; 73.3
Cc1cn(-c2cc(NC(=O)c3cncc(C#Cc4c(N)ncc5ccc(F)cc45)c3)cc(C(F)(F)F)c2)cn1; 61.3

For the next question, use this molecule.
Q. Entry `O=C(CCSc1nnc2n(Cc3ccccc3)c(=O)c3c4c(sc3n12)CCCC4)N1CCN(c2ccccc2)CC1` : reported growth = ?
A. 104

----------
Recorded growth by entry
Test system: PC-3 prostate
Assay: NCI-60 one-dose screen, 48 h (100 = growth as untreated, 0 = no growth, -100 = all killed)
Conditions: 10 µM unless noted
Procedure: Growth inhibition of the PC-3 human tumor cell line is measured as a screen for anti-cancer activity. Cells are grown in 96 well plates and exposed to the test compound for 48 hours. Compounds are tested at a single concentration, which is 10^-5 M for most compounds. The reported endpoint is percent growth (GI% or GIPRCNT), where numbers from 0 - 100% represent growth inhibition, and numbers from -100% - 0 represent cell death. For example, a value of 40 represents 60% growth inhibition. […]
This is part of a sample that, as a whole, favours compounds with a hit. Of some 83,000 tested, about 20% had one in any assay.
Number only, in %; omit the unit.

Known growth results, listed for orientation:
CC1=C(CCC(C)NCc2ccc(OCCCN3CCCCC3)cc2)C(C)(C)CCC1 (stereo not given); -56.1
N=c1c(S(=O)(=O)c2ccccc2)cc2c(=O)n3ccccc3nc2n1CC1CCCO1 (stereo not given); 95.3
N[C@H]1CCC[C@@H]1NCCCCN1C(=O)c2cccc3cc([N+](=O)[O-])cc(c23)C1=O; 40.7
O=C(/C=C(O)/C=C/c1cccc2[nH]ccc12)/C=C/c1cccc2[nH]ccc12; 66.8

Q. Query growth on PC-3 prostate for `Cn1cc(-c2csc(-c3cn(CCCN4CCOCC4)c4ccccc34)n2)c2cccnc21`
A. 68
